# testedTarget: Albumin (Bos taurus) (UniProt P02769)
# Sequence (P02769 whole entry, looked up): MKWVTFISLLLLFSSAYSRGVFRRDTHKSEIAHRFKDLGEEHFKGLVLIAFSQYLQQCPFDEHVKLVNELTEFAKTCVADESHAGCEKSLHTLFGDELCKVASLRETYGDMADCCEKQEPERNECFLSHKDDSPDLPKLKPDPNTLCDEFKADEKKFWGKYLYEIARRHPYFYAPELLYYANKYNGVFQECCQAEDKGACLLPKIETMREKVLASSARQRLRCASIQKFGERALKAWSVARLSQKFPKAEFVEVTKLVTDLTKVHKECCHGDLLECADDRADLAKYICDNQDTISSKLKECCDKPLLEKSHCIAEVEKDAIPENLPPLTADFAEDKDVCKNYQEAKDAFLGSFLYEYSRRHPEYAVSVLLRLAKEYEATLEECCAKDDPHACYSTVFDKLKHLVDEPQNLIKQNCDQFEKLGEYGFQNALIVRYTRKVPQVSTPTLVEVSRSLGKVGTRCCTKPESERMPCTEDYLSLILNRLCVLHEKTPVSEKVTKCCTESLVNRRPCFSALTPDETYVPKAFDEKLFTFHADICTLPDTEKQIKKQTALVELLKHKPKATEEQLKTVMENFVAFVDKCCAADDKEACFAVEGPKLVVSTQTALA
# methodDescription: bovine serum albumin binders on microarray, profiling panel, artefact control for SMM control protein annotation, biochemical, small-molecule microarray, Alexa647 label, 635/667 nm fluorescence (AID 1118);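 also: score merges 667 nm emission intensity and signal-to-noise per printed compound spot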
# testSettings: BSA-A647 binding, fluorescence 635 nm, higher = more signal
observationType: composite z-score

{"compound": "COc1ccc(C(O)C2C=CC3C(=O)N(C)C(=O)C3N2N2CCCCC2)cc1 (stereo unspecified)", "observationType": "composite z-score", "testResult": 0.999}
{"compound": "COc1ccc(C(O)C2C=CC3C(=O)N(c4ccccc4)C(=O)C3N2Nc2ccccc2)cc1OCc1ccccc1 (stereo unspecified)", "observationType": "composite z-score", "testResult": 0.853}
{"compound": "CCCCN1CC=CC23O[C@@H]4C=CCOC(=O)[C@@H]4[C@H]2C(=O)N(C(C)CO)[C@@H]3C1=O (stereo partly specified)", "observationType": "composite z-score", "testResult": -1.04}
{"compound": "CC(C)(C)OC(=O)CC[C@]1(C(=O)NCCN2CCOCC2)N=C(c2ccc(OCCCO)cc2)O[C@H]1c1ccccc1N=[N+]=[N-]", "observationType": "composite z-score", "testResult": 0.942}
{"compound": "C=CC[C@@]1(C(=O)O)N=C(c2ccc(OCCCO)cc2)O[C@@H]1c1ccccc1", "observationType": "composite z-score", "testResult": 0.771}
{"compound": "O=C1c2ccccc2[C@](Cc2ccccc2I)(C(=O)NCc2ccccc2)[C@H](c2ccc(CO)cc2)N1C1CCCCC1", "observationType": "composite z-score", "testResult": 0.861}

Give composite z-score for each of the items listed below.
1. CC=CC(O)C1C=CC2C(=O)N(C)C(=O)C2N1Nc1ccc([N+](=O)[O-])cc1[N+](=O)[O-] (stereo unspecified)
2. Cc1ccc(S[C@]2(C(=O)NCC(C)C)CC(=O)N(Cc3ccccc3Cl)[C@@H]2c2ccc(CO)cc2I)cc1
3. COCCOC(=O)N1C(=O)[C@@]2(c3cc(C#CCC(C(=O)OC)C(=O)OC)ccc31)[C@H](c1ccc(OCCO)cc1)N1[C@H](c3ccccc3)[C@H](c3ccccc3)OC(=O)[C@H]1[C@@H]2C(=O)N1CCN(c2ncccn2)CC1
4. COC(=O)[C@@]1(Cc2ccc(OC)cc2)[C@H]2c3cc(C(=O)N(C)C)n(CCc4c[nH]c5ccc(O)cc45)c3C[C@H]2CN1C(=O)c1ccccc1
5. COCCCNC(=O)[C@@H]1c2ccccc2C(=O)N(Cc2ccccc2C(F)(F)F)[C@H]1c1ccc(CO)cc1

[0.9, -0.253, 0.758, 0.932, -1.34]

Give composite z-score for each of the items listed below.
1. Cc1ccc(F)cc1S(=O)(=O)N[C@@H]1CCN(Cc2ccc(Oc3ccccc3)cc2)C1
2. C=C1C2CC3C(=C4C(CO[C@@H]4[C@H]4CCCN4S(=O)(=O)c4ccccc4[N+](=O)[O-])C4C(=O)N(C)C(=O)C34)CC2C(=O)N1C (stereo partly specified)
3. C=C(CCCC)/C(=C/C[C@@H](OC(C)=O)c1ccc(CO)o1)c1cc(C(=O)OC)ccc1OC
4. CCCCN1CC=CC23O[C@@H]4C=CCOC(=O)[C@@H]4[C@H]2C(=O)N(CCCO)[C@@H]3C1=O (stereo partly specified)
5. COc1cc(OC)c(C(O)C2C=CC3C(=O)N(c4ccccc4)C(=O)C3N2Nc2ccc(C#N)cc2)cc1Br (stereo unspecified)

-0.274
0.873
0.557
0.335
1.01

Give composite z-score for each of the items listed below.
1. C=CCN1C(=O)[C@]2(CC=C)N=C(c3ccc(OCCCO)cc3)O[C@@H]2c2ccccc21
2. C=C(CCCC)C(=O)CC[C@@H](OC(=O)c1ccccc1-c1ccccc1C(=O)O)c1cccc(OCCO)c1
3. COc1ccc(NC(=O)O[C@H]2[C@H](OC(=O)Nc3ccc4c(c3)OCO4)[C@@H](OC(=O)Nc3ccc4c(c3)OCO4)[C@@H](OC)O[C@@H]2CO)cc1

1: 0.93; 2: -0.658; 3: 0.837

Give composite z-score for each of the items listed below.
1. CN(C)C(=O)[C@@]1(Cc2ccccc2N=[N+]=[N-])COC(c2ccc(OCCCO)cc2)=N1
2. O=C1NC(=O)C2C1C=CC(C(O)c1c(F)cccc1Cl)N2Nc1ccccn1 (stereo unspecified)
3. CC(C)(C)N1CC=CC23O[C@@H]4C=CCOC(=O)[C@@H]4[C@H]2C(=O)N(CCCO)[C@@H]3C1=O (stereo partly specified)
4. CC=CC(O)C1C=CC2C(=O)N(C)C(=O)C2N1N1CCCCC1 (stereo unspecified)
5. CCOC(=CC(=O)OC)CC(O)c1cccc(Cl)c1 (stereo unspecified)

0.623
0.179
-1.37
1.01
0.451

Give composite z-score for each of the items listed below.
1. COc1c(C)cc(-c2cc3c(c(-c4ccccc4)n2)[Si](C(C)C)(C(C)C)OC3)cc1C
2. NC(=O)N1C(=O)C2C(C1=O)C1C=C(CCCO)C2C(c2cccs2)N1Cc1cc2c(cc1Br)OCO2 (stereo unspecified)
3. C[C@]1(C(=O)NC2CC2)c2ccccc2C(=O)N(Cc2ccc(OC(F)(F)F)cc2)[C@H]1c1ccc(CO)cc1

1. 0.247
2. 0.429
3. -0.85

Give composite z-score for each of the items listed below.
1. C[C@H]1C2=C3C(CC[C@H]4C(OCc5ccc(F)cc5C(F)(F)F)OC[C@](C)([C@@H]34)N(C(=O)OC(C)(C)C)C2)C2COC(=O)OCC21 (stereo partly specified)
2. CC(C)N1CC=CC23O[C@@H]4C=CCOC(=O)[C@@H]4[C@H]2C(=O)N(C(C)CO)[C@@H]3C1=O (stereo partly specified)
3. COC(=O)[C@@]1(Cc2ccc(OC)cc2)[C@H]2c3cc(C(=O)N(C)C)n(Cc4nc5ccccc5[nH]4)c3C[C@H]2CN1C(=O)c1ccccc1
4. CC(C)C(CO)N1C(=O)[C@]2(C)C3C(=O)OCCC/C=C\[C@H]3OC23C=CCN(c2ccc(Cl)cc2)C(=O)[C@@H]13 (stereo partly specified)

0.963
-0.385
0.997
-0.187

Provenance of the data: PubChem BioAssay
